Assay: NCI Yeast Anticancer Drug Screen. Data for the sgs1 mgt1 strain (AID 161);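 note: 0% = growth of cultures given vehicle only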
Settings: S. cerevisiae sgs1 mgt1 strain, at 50.0 µM, active compounds read high
The panel holds about 79,000 compounds, 15% with a hit somewhere; the sample as a whole holds those more often. Activity calls are given as the source filed them. Cut-off read from the data, not from the text of the source: active = growth inhibition above about 70%; inactive = the rest.
MEASURE: growth inhibition

Worked cases, answers included:
O=C1CCCC(C(Sc2ccccc2)(Sc2ccccc2)Sc2ccccc2)C1 (centres undefined): 65.2% (inactive)
O=C(O)/C=C(/Br)c1ccccc1: -13.8% (inactive)
COC(=O)c1cc(C(=O)O)c(=O)n2ccccc12: 32.1% (inactive)

Q: Query: growth inhibition; subject: O=C(OCC1OCOC(COC(=O)c2ccccc2)C(OC(=O)c2ccccc2)C1OC(=O)c1ccccc1)c1ccccc1 (centres undefined)
Result: -4.6% (inactive)

Q: Query: growth inhibition; subject: CSCCCN(CCCSC)CCCSC
Result: -0.3% (inactive)

Q: Query: growth inhibition; subject: Cc1ccc2[nH]c(=S)[nH]c(=S)c2c1
Result: 13.2% (inactive)

Q: Query: growth inhibition; subject: CN1CCCCCCCC(=O)C(OC(=O)c2ccc([N+](=O)[O-])cc2)CCCCCCC1 (centres undefined)
Result: 27% (inactive)

Q: Query: growth inhibition; subject: CC(O)/C=C/C(CCC(C)CO)C(C)C (centres undefined)
Result: -26% (inactive)

Q: Query: growth inhibition; subject: C=CCc1cc(C(Cc2ccccc2)NC(C)C)cc(OCc2ccccc2)c1OCc1ccccc1 (centres undefined)
Result: 16.9% (inactive)

* * *

Assay: NCI Yeast Anticancer Drug Screen. Data for the mlh1 rad18 strain (AID 175)
Details: S. cerevisiae mlh1 rad18 strain growth inhibition; at 50.0 µM
This is part of a sample that, as a whole, favours compounds with a hit. Of some 79,000 tested, about 15% had one in any assay. Calls of active or inactive are those of the source. Cut-off read from the data, not from the text of the source: active = growth inhibition above about 70%; inactive = the rest.
Thanks in advance; please answer with one of these: active, inactive

O=NC1CC=CC1Cl (stereo unspecified): inactive
O=C(O)CNC(=O)c1cccc(Cl)c1: inactive
O=c1[nH]c(=O)n(C2OC(COP(=O)(O)OP(=O)(O)OC3OC(CO)C(O)C(O)C3O)C(O)C2O)cc1F (stereo unspecified): inactive

Q: Record request — test call for COC(=O)CC1C(OC)OC23CCC1C2(C)CCC1C3CCC2CC(OC3CCCCO3)CCC21C (stereo unspecified)
Result: inactive

Q: Record request — test call for Cn1nnn2c(-c3ccccc3)nnc12
Result: inactive

Q: Record request — test call for CCCCCCC(=O)/C=C/c1cccc(OCc2cccc(Cl)c2)c1
Result: inactive

Q: Record request — test call for CC(=O)Nc1nc2ncc(CN(C(C)=O)c3ccc(C(=O)O)cc3)nc2c(=O)[nH]1
Result: inactive

Q: Record request — test call for CC1CCC2(OC1)OC1CC3C4CCC5CC(O)CCC5(C)C4CC(=O)OC3(C)C1C2C (stereo unspecified)
Result: inactive

* * *

Entries annotated with measured growth inhibition
Test: NCI Yeast Anticancer Drug Screen. Data for the cln2 rad14 strain (AID 165);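 note: 0% = growth equal to vehicle treated cultures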
Conditions: S. cerevisiae cln2 rad14 strain, at 50.0 µM, active compounds read high
This is part of a sample that, as a whole, favours compounds with a hit. Of some 79,000 tested, about 15% had one in any assay.
# output: bare number, implied unit %

CC(c1ccccc1)C1CC(=O)N(C)C1=O (centres undefined): -19.9
C(#Cc1ccccc1)/C=C/C(=C\c1ccccc1)c1ccccc1: 11.8
CSC1(C)C(=O)Nc2cc([N+](=O)[O-])ccc21 (centres undefined): -14.2
COc1ccc(OC)c(C2SCC(=O)N2c2nncs2)c1 (centres undefined): -17.6
CC1CCC(C(C)C)C(OC2(c3ccccc3)OC(=O)c3ccccc32)C1 (centres undefined): 8.55
O=c1[nH]c2cc([N+](=O)[O-])ccc2nc1/C(=N/Nc1ccccc1)C(O)c1ccco1 (centres undefined): 16.2
O=C(Nc1ccc(CCO)cc1)Nc1ccc(Cl)cc1[N+](=O)[O-]: -18.7
CC(C)c1ccc(/C=C/C(=O)c2ccc([N+](=O)[O-])cc2)cc1: -13.3
N#CC(=S)N(C(=O)c1ccc(Cl)cc1)c1ccccc1Cl: -18.9
C(=N\N(CCCCN(/N=C/c1ccccc1)c1ccccc1)c1ccccc1)/c1ccccc1: 21.8

# context switch: different compound, same growth inhibition
Q: Query: growth inhibition; subject: CCOC(=O)c1cnc(SCc2ccccc2)[nH]c1=O
Result: -3.7

Reference source for all entries: PubChem BioAssay (NCI)
